Molecular target: horseradish peroxidase (HRP) tagged delF508-CFTR (Homo sapiens, UniProt P13569, DEL508-508)
Construct: expressed in transfected cells
Sequence (P13569 with tags, fused parts or gaps DEL508-508): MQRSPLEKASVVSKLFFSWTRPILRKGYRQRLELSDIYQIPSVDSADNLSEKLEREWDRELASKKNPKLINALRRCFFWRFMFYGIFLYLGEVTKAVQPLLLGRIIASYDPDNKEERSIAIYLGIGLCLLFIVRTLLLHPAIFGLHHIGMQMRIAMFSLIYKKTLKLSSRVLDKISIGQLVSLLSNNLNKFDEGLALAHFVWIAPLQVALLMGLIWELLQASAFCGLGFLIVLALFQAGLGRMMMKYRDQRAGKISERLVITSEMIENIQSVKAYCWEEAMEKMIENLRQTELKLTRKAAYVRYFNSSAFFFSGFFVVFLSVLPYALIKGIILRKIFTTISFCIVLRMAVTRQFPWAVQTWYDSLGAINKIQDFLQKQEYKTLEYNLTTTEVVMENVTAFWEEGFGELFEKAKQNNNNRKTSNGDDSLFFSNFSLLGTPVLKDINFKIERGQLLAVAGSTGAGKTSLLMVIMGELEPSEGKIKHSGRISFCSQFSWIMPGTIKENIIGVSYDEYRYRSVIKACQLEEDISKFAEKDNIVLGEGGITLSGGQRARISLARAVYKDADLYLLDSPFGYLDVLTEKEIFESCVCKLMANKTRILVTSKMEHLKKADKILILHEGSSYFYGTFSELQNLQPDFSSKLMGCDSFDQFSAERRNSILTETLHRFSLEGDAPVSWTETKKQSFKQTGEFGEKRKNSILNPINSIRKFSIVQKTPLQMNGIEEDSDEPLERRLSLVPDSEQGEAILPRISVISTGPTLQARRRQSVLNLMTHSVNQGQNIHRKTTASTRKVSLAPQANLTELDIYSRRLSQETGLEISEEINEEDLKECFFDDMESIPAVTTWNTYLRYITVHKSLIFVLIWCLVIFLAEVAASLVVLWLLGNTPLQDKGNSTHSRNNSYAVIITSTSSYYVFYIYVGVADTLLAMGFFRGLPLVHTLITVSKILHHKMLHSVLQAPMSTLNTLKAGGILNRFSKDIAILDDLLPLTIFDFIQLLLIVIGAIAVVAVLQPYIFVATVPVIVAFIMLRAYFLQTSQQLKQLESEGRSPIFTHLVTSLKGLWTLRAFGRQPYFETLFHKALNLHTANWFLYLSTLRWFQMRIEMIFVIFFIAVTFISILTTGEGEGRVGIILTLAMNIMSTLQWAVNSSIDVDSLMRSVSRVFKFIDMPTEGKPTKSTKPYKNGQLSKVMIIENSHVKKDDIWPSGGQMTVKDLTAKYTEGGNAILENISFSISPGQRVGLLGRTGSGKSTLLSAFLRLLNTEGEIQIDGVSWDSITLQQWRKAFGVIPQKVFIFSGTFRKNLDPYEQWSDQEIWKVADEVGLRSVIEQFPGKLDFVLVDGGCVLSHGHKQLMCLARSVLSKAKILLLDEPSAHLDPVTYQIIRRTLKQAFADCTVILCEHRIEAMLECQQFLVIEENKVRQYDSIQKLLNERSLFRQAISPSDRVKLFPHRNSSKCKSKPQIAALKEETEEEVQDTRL
Test: Measurement of delF508-CFTR-HRP surface expression in CFBE41o- cells
Type: cell-based
Conditions: CFBE41o- cells; mean of at least two replicates; read-out: DelF508-CFTR-HRP EC50
pEC50: −log10 of the molar value.
reported endpoint: pEC50

Please review the following examples before continuing.
{"columns": ["compound", "pEC50"],
 "data": [
  ["CCC1(C(=O)O)CCCN(c2cccc(S(=O)(=O)Nc3ccc(C(F)(F)F)c(-c4ccccc4C)n3)n2)C1 (centres unmarked)", 5.77],
  ["Cc1cccc(C)c1-c1nc(NS(=O)(=O)c2cccc(N3CCC[C@@](C)(C(=O)O)C3)n2)ccc1Cl", 5.83],
  ["C[C@@]1(C(=O)O)CCCN(c2cccc(S(=O)(=O)Nc3ccc(C4CC4)c(-c4ccccc4C4CC4)n3)n2)C1", 5.79]
]}

A. Cc1c(F)cccc1-c1nc(NS(=O)(=O)c2cccc(N3CCCC4(CC4C(=O)O)C3)n2)ccc1C(F)(F)F (centres unmarked)
B. CC(C)c1ccccc1-c1nc(NS(=O)(=O)c2cccc(N3CCC[C@@](C)(C(=O)O)C3)n2)ccc1C(F)(F)F
**Q:** Which has the higher pEC50, A or B ? Mark your answer with the label of the selected entry.
**A:** B
(B: 6.30, A: 5.60)

1. Cc1ccccc1-c1nc(NS(=O)(=O)c2cccc(NC3CCCC(C(=O)O)C3)n2)ccc1C(F)(F)F (mixture of isomers)
2. CCCc1ccccc1-c1nc(NS(=O)(=O)c2cccc(N3CCCC(C)(C(=O)O)C3)n2)ccc1C(F)(F)F (centres unmarked)
**Q:** Endpoint returns whichever of 1 and 2 has the numerically higher pEC50. Write the label of whichever entry you select.
**A:** 2
